- tested_on: His-PKC-theta (Homo sapiens)
- Construct: His; purchased Invitrogen
- Sequence (Q04759 whole entry): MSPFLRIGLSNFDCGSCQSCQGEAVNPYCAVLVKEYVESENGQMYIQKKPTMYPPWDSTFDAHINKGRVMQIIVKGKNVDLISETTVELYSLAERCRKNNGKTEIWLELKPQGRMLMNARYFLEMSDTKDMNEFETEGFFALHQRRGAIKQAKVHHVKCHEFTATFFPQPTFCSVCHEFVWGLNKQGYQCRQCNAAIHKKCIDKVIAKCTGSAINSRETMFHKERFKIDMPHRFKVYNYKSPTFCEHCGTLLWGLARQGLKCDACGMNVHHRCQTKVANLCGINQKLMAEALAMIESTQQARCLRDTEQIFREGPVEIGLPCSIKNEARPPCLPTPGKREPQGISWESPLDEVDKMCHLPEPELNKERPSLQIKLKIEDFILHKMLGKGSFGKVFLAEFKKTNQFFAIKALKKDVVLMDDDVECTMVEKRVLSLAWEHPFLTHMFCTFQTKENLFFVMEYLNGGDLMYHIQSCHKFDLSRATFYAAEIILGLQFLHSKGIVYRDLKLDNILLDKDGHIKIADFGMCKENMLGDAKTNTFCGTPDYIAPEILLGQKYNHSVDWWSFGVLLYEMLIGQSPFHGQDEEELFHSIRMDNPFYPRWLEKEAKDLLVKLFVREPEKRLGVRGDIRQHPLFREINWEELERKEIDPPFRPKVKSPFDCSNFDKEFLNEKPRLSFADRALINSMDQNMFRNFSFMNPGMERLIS
- experiment_description: PKC-theta Assay (384-well time resolved fluorescence, IMAP TR-FRET)
- Format: biochemical
- run_conditions: read-out: Act. Level (IC50 in the PKC-theta Assay)
pIC50: −log10 of the molar value.
outcome_measure: pIC50

molecule: O[C@H]1CC[C@@H](Nc2nc(NCc3cnccc3C(F)(F)F)ncc2C(F)(F)F)CC1
pIC50: > 7.00
--
molecule: CC1(C)[C@H](O)CCC[C@H]1Nc1nc(NCCC2C(=O)Nc3cc(F)ccc32)ncc1C#N (stereo partly drawn)
pIC50: 5.70 to 6.10

IN: Tell us which pIC50 value is on record for "CCOc1ncncc1CNc1ncc(C#N)c(N[C@@H]2C[C@H](O)C2(C)C)n1"
OUT: > 7.00

IN: Complete the entry with pIC50 for "CC(F)(F)COc1ncncc1CNc1ncc(C#N)c(N[C@H]2CCC[C@@](C)(O)C2)n1"
OUT: 6.10 to 7.00

IN: Please give measured pIC50 of the following entry: "CC1(C)[C@@H](O)C[C@H]1Nc1nc(NCCc2c[nH]c3cc(F)ccc23)ncc1C#N"
OUT: 6.10 to 7.00

IN: Tell me measured pIC50 for "CC1(C)C[C@H](Nc2nc(NCCc3c[nH]c4ccccc34)ncc2C#N)CC[C@@H]1O" please.
OUT: > 7.00

IN: Note pIC50 for the molecule shown: "CC1(C)C[C@H](Nc2nc(NCc3cncnc3OCCC(F)(F)F)ncc2C#N)CC[C@@H]1O"
OUT: > 7.00

IN: Check the records and state pIC50 for "Cc1cc2ccccc2n1CCNc1ncc(C#N)c(N[C@@H]2C[C@H](O)C2(C)C)n1"
OUT: 5.70 to 6.10

IN: Quote pIC50 reported for "CCOc1cc(CCNc2ncc(C#N)c(N[C@@H]3CC[C@H](O)C(C)(C)C3)n2)ccn1" please.
OUT: 6.10 to 7.00
